Every entry's value here was drawn from patent US20150315211A1.

- assayed system: MCL-1ΔNΔC (Homo sapiens, UniProt Q07820)
- Sequence (Q07820 172-320 limits assumed, stated change not applied): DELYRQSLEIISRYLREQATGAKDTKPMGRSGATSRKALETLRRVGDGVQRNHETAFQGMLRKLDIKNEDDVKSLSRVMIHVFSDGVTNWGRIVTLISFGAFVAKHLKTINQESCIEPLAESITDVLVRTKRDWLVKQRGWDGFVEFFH
- assay method text: High-throughput competitive FP binding screen, FITC-MCL-1 SAHB/MCL-1ΔNΔC interaction
- Design: the C-terminal alpha-helix was deleted from each of these constructs; GST (N, cleaved yes); made in house
- condition description: FITC-MCL-1 SAHB/MCL-1ΔNΔC interaction pair, competitive FP screen
# maps each entry to its MCL-1% Bound
Write the figure, then the unit, nothing else.

Field: example entries. Status: answers known.
[[record]]
compound = "CC1=C(C#N)C(=O)N(CC(C)O)C(=O)/C1=C/c1ccc(-c2ccc(C(=O)OC(C)C)cc2)o1 (stereo not shown)"
assay_result = "30.2%"

[[record]]
compound = "CN1CCC(N(C)Cc2cc(C(C)(C)C)c(O)c(C(C)(C)C)c2)CC1"
assay_result = "63.36%"

[[record]]
compound = "Cc1c(Cl)cccc1N1C(=O)CC(Sc2nnnn2-c2ccccc2)C1=O (stereo not shown)"
assay_result = "52.43%"

[[record]]
compound = "O=c1c(O)c(-c2cc(O)c(O)c(O)c2)oc2cc(O)cc(O)c12 [drawing 222]"
assay_result = "34.13%"

[[record]]
compound = "O=C1c2ccccc2CCC1Sc1nnc(-c2ccncc2)o1 (stereo not shown)"
assay_result = "42.84%"

[[record]]
compound = "CC(C)CNC(=O)CCc1nc(-c2ccccc2)no1"
assay_result = "37.48%"


Input line: What does the data say about its MCL-1% Bound? Entry: COC(=O)c1c(NC(=O)C2CC2)sc(C)c1C
Output line: 53.71%

Input line: What does the data say about its MCL-1% Bound? Entry: CCCN1C(=O)/C(=C/c2ccc(-c3cccc(C(F)(F)F)c3)o2)NC1=S
Output line: 27.93%

Input line: What does the data say about its MCL-1% Bound? Entry: CCCCSC1=C(C#N)C(=O)NC(c2ccc(OC)cc2)S1 (stereo not shown)
Output line: 24.59%

Input line: What does the data say about its MCL-1% Bound? Entry: COc1cc(C2Nc3cccc4cccc(c34)N2)cc(I)c1O
Output line: 22.81%

###

# maps each entry to its MCL-1% Bound
- assayed system: MCL-1ΔNΔC (Homo sapiens)
- assay method text: High-throughput competitive FP binding screen, FITC-MCL-1 SAHB/MCL-1ΔNΔC interaction
- Set-up: the C-terminal alpha-helix was deleted from each of these constructs; GST (N, cleaved yes); made in house
- condition description: FITC-MCL-1 SAHB/MCL-1ΔNΔC interaction pair, competitive FP screen

[[record]]
compound = "CCCOC(=O)c1cc(-c2ccc(/C=C3\\C(=O)NC(=O)C(C#N)=C3C)o2)ccc1Cl"
assay_result = "−10.6%"

[[record]]
compound = "O=C(NN1C(=O)S/C(=C/C=C/c2ccco2)C1=O)c1ccccc1O"
assay_result = "19.8%"

[[record]]
compound = "O=C(c1ccccc1)c1nc2ccccc2oc1=O"
assay_result = "−19.61%"

[[record]]
compound = "COC(=O)c1c(N)sc2c1Cc1ccccc1C2"
assay_result = "47.69%"

[[record]]
compound = "O=C(/C=C/c1ccco1)NCc1ccccc1"
assay_result = "56.1%"

[[record]]
compound = "Cc1nc2c(C(=O)NCc3ccccc3Cl)cnn2c(O)c1Cl"
assay_result = "31.4%"

[[record]]
compound = "Cc1ccc(C)c(S(=O)(=O)Nc2cc(Cl)c3oc(=O)sc3c2)c1"
assay_result = "25.38%"

[[record]]
compound = "CC1CCc2c(sc3[nH]c(=S)sc(=N)c23)C1 (centres unmarked)"
assay_result = "18.95%"


Input line: What does the data say about its MCL-1% Bound? Entry: CC(C)/N=c1\scc(-c2cccs2)n1/N=C/c1ccc(O)c(O)c1O
Output line: −23.1%

Input line: What does the data say about its MCL-1% Bound? Entry: Cc1ccc(NC(=O)COc2ncnc3c2cnn3-c2ccccc2)cc1
Output line: 16.2%

###

- Tested on: MCL-1ΔNΔC
- assay method text: High-throughput competitive FP binding screen, FITC-MCL-1 SAHB/MCL-1ΔNΔC interaction
- condition description: selectivity for MCL-1ΔNΔC over BCL-XLΔC targeting (BCL-XL % Bound minus MCL-1 % Bound)
measured endpoint: Spec Values

[[record]]
molecule = "Cc1c(Cl)cccc1N1C(=O)CC(N2CCCc3ccccc32)C1=O (stereo not drawn)"
assay_result = 48.92


Input line: What does the data say about its Spec Values? Entry: O=C1COc2ccc(-c3cs/c(=N\c4ccc(F)cc4)n3/N=C/c3ccc(O)c(O)c3)cc2N1
Output line: 58.52

Input line: What does the data say about its Spec Values? Entry: Cc1ccc(C(c2c(O)ccc3ccccc23)N2CCOCC2)o1 (stereo not drawn)
Output line: 59.04

###

# maps each entry to its Spec Values
- Tested on: MCL-1ΔNΔC
- assay method text: High-throughput competitive FP binding screen, FITC-MCL-1 SAHB/MCL-1ΔNΔC interaction
- condition description: selectivity for MCL-1ΔNΔC over BCL-XLΔC targeting (BCL-XL % Bound minus MCL-1 % Bound)
The reply should be a number, written without any unit.

Field: example entries. Status: answers known.
[[record]]
molecule = "N#C/C(=C/C=C/c1ccc(-c2cc(Cl)ccc2Cl)o1)C(N)=S"
measured_endpoint = "Spec Values"
assay_result = 60.96

[[record]]
molecule = "Cc1ccc2n1CCn1cc(-c3ccc(Br)cc3)cc1-2"
measured_endpoint = "Spec Values"
assay_result = 55.6

[[record]]
molecule = "N#CSC(C#N)Cc1ccccc1 (stereo not shown)"
measured_endpoint = "Spec Values"
assay_result = 53.23

[[record]]
molecule = "CCC(c1nnc(SCC(=O)NCCc2ccc(Cl)cc2Cl)o1)N(C)C (stereo not shown)"
measured_endpoint = "Spec Values"
assay_result = 52.14

[[record]]
molecule = "O=S(=O)(Nc1ccc(O)c2ccccc12)c1ccccc1"
measured_endpoint = "Spec Values"
assay_result = 76.72


Input line: What does the data say about its Spec Values? Entry: CCOc1ccc2c(c1)C(C)=CC(C)(C)N2C(=O)CSc1nnc(C2CC2)n1C
Output line: 55.24

Input line: What does the data say about its Spec Values? Entry: CCCCn1c(=O)[nH]c(=O)c2c1nc(-c1cccs1)c(=O)n2C
Output line: 62.84

Input line: What does the data say about its Spec Values? Entry: O=c1c(O)c(-c2ccc(O)c(O)c2)oc2cc(O)cc(O)c12 [drawing 172]
Output line: 83.25

Input line: What does the data say about its Spec Values? Entry: COc1cc2c(O)c3c(c(-c4ccc5c(c4)OCO5)c2cc1OC)C(=O)OC3
Output line: 66.63

Input line: What does the data say about its Spec Values? Entry: O=C1N=C(Nc2cccc(Cl)c2Cl)S/C1=C/c1ccco1
Output line: 73.87

###

- assayed system: BCL-XLΔC (Homo sapiens)
- Sequence (Q07817 1-212 limits assumed, stated change not applied): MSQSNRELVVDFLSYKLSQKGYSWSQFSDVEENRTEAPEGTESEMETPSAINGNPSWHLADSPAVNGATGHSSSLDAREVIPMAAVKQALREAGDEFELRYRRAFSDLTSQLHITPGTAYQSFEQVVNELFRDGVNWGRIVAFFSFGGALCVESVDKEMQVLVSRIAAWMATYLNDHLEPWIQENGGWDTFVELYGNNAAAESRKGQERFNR
- assay method text: High-throughput competitive FP binding screen, FITC-BAD BH3/BCL-XLΔC interaction
- condition description: FITC-BAD BH3/BCL-XLΔC interaction pair, competitive FP screen
measured endpoint: BCL-XL % Bound
Write the figure, then the unit, nothing else.

Field: example entries. Status: answers known.
[[record]]
compound = "O=C(CSc1ncc(C(F)(F)F)cc1Cl)NC(=O)CN1CCCC1=O"
assay_result = "98.97%"

[[record]]
compound = "CCN(CC)c1cc(C)c2cc(NC(=O)/C=C/c3ccco3)ccc2n1"
assay_result = "79.88%"

[[record]]
compound = "Cn1cc2c(n1)-c1cc(Cl)ccc1SC2"
assay_result = "89.61%"

[[record]]
compound = "CCN1C(=O)C2Cc3cc(OC)c(OC)cc3CN2C1=O (stereo not shown)"
assay_result = "91.73%"

[[record]]
compound = "COC(=O)c1c(NC(=S)Nn2cnnc2)sc2c1CCC(C)C2 (stereo not shown)"
assay_result = "77.55%"

[[record]]
compound = "CCCCn1c2ccccc2c2nnc(S)nc21"
assay_result = "92.39%"


Input line: What does the data say about its BCL-XL % Bound? Entry: COC(=O)c1ccc(-c2ccc(/C=C3/C(=O)N(C)C(=O)C(C#N)=C3C)o2)cc1
Output line: 91.59%

Input line: What does the data say about its BCL-XL % Bound? Entry: O=C1N/C(=N/c2ccccc2)S/C1=C/C=C/c1ccco1
Output line: 97.59%

Input line: What does the data say about its BCL-XL % Bound? Entry: O=C1C(Sc2nc[nH]n2)=C/C(=N/S(=O)(=O)c2cccs2)c2ccccc21
Output line: 93.16%

###

- assayed system: MCL-1ΔNΔC (Homo sapiens, UniProt Q07820)
- assay method text: High-throughput competitive FP binding screen, FITC-MCL-1 SAHB/MCL-1ΔNΔC interaction
- Parameters: the C-terminal alpha-helix was deleted from each of these constructs; GST (N, cleaved yes); made in house
- condition description: FITC-MCL-1 SAHB/MCL-1ΔNΔC interaction pair, competitive FP screen
measured endpoint: MCL-1% Bound (%)
Hi! Could you send only the number? It should be in %, unit omitted.

Field: example entries. Status: answers known.
[[record]]
molecule = "Cc1ccc(CCNC(=O)c2ccc3nc(-c4ccco4)c(-c4ccco4)nc3c2)cc1"
unit_annotation = "%"
assay_result = 35.73

[[record]]
molecule = "NNCc1c(Cl)cccc1Cl"
unit_annotation = "%"
assay_result = 55.76

[[record]]
molecule = "COc1ccc(N(C)C(=S)Nc2ccc3nc(-c4ccco4)c(-c4ccco4)nc3c2)cc1 [drawing 205]"
unit_annotation = "%"
assay_result = 8.322

[[record]]
molecule = "Oc1ccc(NCc2ccc(Br)cc2)cc1"
unit_annotation = "%"
assay_result = 34.63

[[record]]
molecule = "COc1ccc(C(=O)c2sc3cc(-c4ccco4)cc(C(F)(F)F)c3c2N)cc1OC"
unit_annotation = "%"
assay_result = 14.29

[[record]]
molecule = "N#C/C(=C\\C=C\\c1ccco1)C(N)=S"
unit_annotation = "%"
assay_result = 7.822

[[record]]
molecule = "CN1CCN(C(c2ccccn2)c2c(-c3ccccc3)n(O)c3ccccc23)CC1 (centres unmarked)"
unit_annotation = "%"
assay_result = 50.55

[[record]]
molecule = "O=C1C(Sc2nc[nH]n2)=C/C(=N/S(=O)(=O)c2cccs2)c2ccccc21"
unit_annotation = "%"
assay_result = 19.75

[[record]]
molecule = "CC(C)(C)c1cc(Cc2ccc(O)c(O)c2)cc(C(C)(C)C)c1O"
unit_annotation = "%"
assay_result = "−11.56"

[[record]]
molecule = "COc1ccc(-c2nc3scc(CCNC(=O)/C=C/c4ccco4)n3n2)cc1"
unit_annotation = "%"
assay_result = 40.51


Input line: What does the data say about its MCL-1% Bound? Entry: O=c1oc2ccccc2c2oc3cc(O)c(O)cc3c12
Output line: 12.59

Input line: What does the data say about its MCL-1% Bound? Entry: Cn1c(/N=C/c2c(O)ccc3ccccc23)nc2ccc(Br)cc21
Output line: −29.64

Input line: What does the data say about its MCL-1% Bound? Entry: Cc1ccc(/C=C2\C(=O)Nc3ccc(Br)cc32)o1
Output line: 18.74

Input line: What does the data say about its MCL-1% Bound? Entry: Oc1ccc(/C=N/c2cccc(C(F)(F)F)c2)c(O)c1
Output line: 28.42
